measurementTarget: Interleukin-8 receptors, CXCR1/CXCR2 (Homo sapiens) (UniProt P25025+P25024)
assaySummary: Inhibition of CXCL8-induced chemotaxis of human polymorphonuclear cells at 10e-8 M: not active
Format: functional
The source made the active and inactive calls. No cut-off for these calls is given here.
readoutLabel: inhibition

These solved cases illustrate the format of a correct answer.
[
  {
    "compound": "CC(C(=O)O)c1ccc(C(C)(C)C)cc1 (configuration not stated)",
    "inhibition": "inactive"
  },
  {
    "compound": "CC(C)Cc1ccc([C@@H](C)C(=O)NS(=O)(=O)Cc2cccnc2)cc1",
    "inhibition": "inactive"
  },
  {
    "compound": "CC(C)Cc1ccc([C@@H](C)C(=O)N2CCCCC2)cc1",
    "inhibition": "inactive"
  },
  {
    "compound": "CC(C)Cc1ccc([C@@H](C)C(=O)NS(=O)(=O)Cc2ccc(Cl)cc2)cc1",
    "inhibition": "inactive"
  },
  {
    "compound": "CC(C)Cc1ccc([C@@H](C)C(=O)NCCC(=O)O)cc1",
    "inhibition": "inactive"
  },
  {
    "compound": "CC(C)Cc1ccc([C@@H](C)C(=O)NCCCN)cc1",
    "inhibition": "inactive"
  },
  {
    "compound": "COC(=O)[C@@H](C)NC(=O)[C@H](C)c1ccc(CC(C)C)cc1",
    "inhibition": "inactive"
  },
  {
    "compound": "CC(C)Cc1ccc([C@@H](C)C(=O)NC2CCN(C)C2)cc1 (some centres not stated)",
    "inhibition": "inactive"
  }
]

Query: inhibition; subject: CC(=O)c1cccc(C(C)C(=O)O)c1 (configuration not stated)
inactive
